Data provenance is paper PMC11855478.

Form field: Growth Percent (one value per entry).
- Test system: EKVX (Non-Small Cell Lung Cancer)
- experiment-summary: NCI one dose, EKVX
- Type: cell-based, human
- experimental-conditions: 1.00E-5 Molar one dose
readout-type: Growth Percent (%)

# compound, target-under-test, readout-type, recorded-result
rows = [
    ("COc1ccc(CNC(=O)[C@@H]2CS[C@@]3(C)c4ccccc4C(=O)N23)cc1OC", "EKVX (Non-Small Cell Lung Cancer)", "Growth Percent", 107.62),
    ("COc1ccc(CNC(=O)[C@@H]2CS[C@@]3(C)c4ccccc4C(=O)N23)cc1", "EKVX (Non-Small Cell Lung Cancer)", "Growth Percent", 106.83),
    ("C[C@@]12SC[C@@H](C(=O)NCc3ccccc3C(F)(F)F)N1C(=O)c1ccccc12", "EKVX (Non-Small Cell Lung Cancer)", "Growth Percent", 104.01),
    ("O=C(NCc1ccccc1C(F)(F)F)[C@@H]1CS[C@H]2c3ccccc3C(=O)N12", "EKVX (Non-Small Cell Lung Cancer)", "Growth Percent", 99.35),
    ("O=C(NCc1ccccc1)[C@@H]1CS[C@H]2c3ccccc3C(=O)N12", "EKVX (Non-Small Cell Lung Cancer)", "Growth Percent", 105.39),
    ("COc1cccc(CNC(=O)[C@@H]2CS[C@@]3(C)c4ccccc4C(=O)N23)c1", "EKVX (Non-Small Cell Lung Cancer)", "Growth Percent", 112.43),
    ("C[C@@]12SC[C@@H](C(=O)NCc3cccc(C(F)(F)F)c3)N1C(=O)c1ccccc12", "EKVX (Non-Small Cell Lung Cancer)", "Growth Percent", 98.64),
    ("COc1cccc(CNC(=O)[C@@H]2CS[C@H]3c4ccccc4C(=O)N23)c1", "EKVX (Non-Small Cell Lung Cancer)", "Growth Percent", 111.45),
    ("C[C@@]12SC[C@@H](C(=O)NCc3ccccc3Br)N1C(=O)c1ccccc12", "EKVX (Non-Small Cell Lung Cancer)", "Growth Percent", 106.14),
    ("C[C@@]12SC[C@@H](C(=O)NCc3ccc(Cl)cc3Cl)N1C(=O)c1ccccc12", "EKVX (Non-Small Cell Lung Cancer)", "Growth Percent", 112.50),
    ("COc1cc(CNC(=O)[C@@H]2CS[C@@]3(C)c4ccccc4C(=O)N23)cc(OC)c1OC", "EKVX (Non-Small Cell Lung Cancer)", "Growth Percent", 108.30),
    ("COc1ccccc1CNC(=O)[C@@H]1CS[C@H]2c3ccccc3C(=O)N12", "EKVX (Non-Small Cell Lung Cancer)", "Growth Percent", 106.79),
    ("C[C@@]12SC[C@@H](C(=O)NCc3ccccc3)N1C(=O)c1ccccc12", "EKVX (Non-Small Cell Lung Cancer)", "Growth Percent", 104.65),
    ("COc1cc(CNC(=O)[C@@H]2CS[C@H]3c4ccccc4C(=O)N23)cc(OC)c1OC", "EKVX (Non-Small Cell Lung Cancer)", "Growth Percent", 101.46),
    ("COc1ccccc1CNC(=O)[C@@H]1CS[C@@]2(C)c3ccccc3C(=O)N12", "EKVX (Non-Small Cell Lung Cancer)", "Growth Percent", 102.57),
    ("COc1ccc(CNC(=O)[C@@H]2CS[C@H]3c4ccccc4C(=O)N23)cc1", "EKVX (Non-Small Cell Lung Cancer)", "Growth Percent", 106.31),
    ("O=C(NCc1ccc(Cl)cc1Cl)[C@@H]1CS[C@H]2c3ccccc3C(=O)N12", "EKVX (Non-Small Cell Lung Cancer)", "Growth Percent", 100.24),
    ("O=C(NCc1cccc(C(F)(F)F)c1)[C@@H]1CS[C@H]2c3ccccc3C(=O)N12", "EKVX (Non-Small Cell Lung Cancer)", "Growth Percent", 103.29),
    ("COc1ccc(CNC(=O)[C@@H]2CS[C@H]3c4ccccc4C(=O)N23)cc1OC", "EKVX (Non-Small Cell Lung Cancer)", "Growth Percent", 114.59),
]
